Tested on: Phaedon cochleariae
Test: Phaedon cochleariae spray test
Assay type: in vivo
Details: foliar, 168 h, Chinese cabbage leaf discs, larvae, after 7 days, read-out: efficacy
Exercise: state measured pest or weed control at 500 g/ha for each of the molecules provided.
Answer with a number only, understood to be in %.

## Input State recorded pest or weed control at 500 g/ha with Phaedon cochleariae, entry COc1cc(S(=O)(=O)NC(=O)c2cn(C)c(-c3ncccc3Cl)n2)c(C)cc1Br [Example 611] , no comment.
## Output 100

## Input State recorded pest or weed control at 500 g/ha with Phaedon cochleariae, entry Cn1cc(C(=O)NS(=O)(=O)c2ccccc2C(F)(F)F)nc1-c1c(Cl)cccc1Cl [Example 23] , no comment.
## Output 100

## Input State recorded pest or weed control at 500 g/ha with Phaedon cochleariae, entry Cn1cc(C(=O)NS(=O)(=O)c2cc(Br)ccc2Br)nc1-c1ccccc1Cl [Example 429] , no comment.
## Output 100

## Input State recorded pest or weed control at 500 g/ha with Phaedon cochleariae, entry Cc1ccc(C)c(S(=O)(=O)NC(=O)c2cn(C)c(-c3cccc4ccccc34)n2)c1 [Example 502] , no comment.
## Output 100

----------
System: Phaedon cochleariae
Experiment: Phaedon cochleariae spray test
Assay type: in vivo
Conditions: foliar, 168 h, Chinese cabbage leaf discs, larvae, after 7 days, read-out: efficacy
Exercise: state measured pest or weed control at 500 g/ha for each of the molecules provided.

## Input Specify pest or weed control at 500 g/ha for "Cc1ccccc1S(=O)(=O)NC(=O)c1nc(-c2c(F)cccc2F)n(C)c1C" and stop.
## Output 100%

## Input Specify pest or weed control at 500 g/ha for "CCCc1cccc(C(F)(F)F)c1S(=O)(=O)NC(=O)c1cn(C)c(-c2c(F)cccc2F)n1" and stop.
## Output 100%

## Input Specify pest or weed control at 500 g/ha for "Cc1cc(S(=O)(=O)NC(=O)c2cn(C)c(-c3ccccc3Cl)n2)c(C)s1" and stop.
## Output 83%

## Input Specify pest or weed control at 500 g/ha for "Cc1cc(Br)ccc1S(=O)(=O)NC(=O)c1cn(C)c(-c2c(F)cccc2F)n1" and stop.
## Output 100%

## Input Specify pest or weed control at 500 g/ha for "CCOc1ccc(Cl)c(S(=O)(=O)NC(=O)c2cn(C)c(-c3c(F)cccc3F)n2)c1" and stop.
## Output 100%

## Input Specify pest or weed control at 500 g/ha for "Cc1ccccc1S(=O)(=O)NC(=O)c1cn(C)c(-c2c(F)cccc2F)n1" and stop.
## Output 100%

## Input Specify pest or weed control at 500 g/ha for "Cn1cc(C(=O)NS(=O)(=O)c2cc(Cl)ccc2Cl)nc1-c1c(F)cccc1F" and stop.
## Output 83%

## Input Specify pest or weed control at 500 g/ha for "COc1ccc(Cl)c(S(=O)(=O)NC(=O)c2nc(-c3ccccc3Cl)n(C)c2C)c1" and stop.
## Output 100%

## Input Specify pest or weed control at 500 g/ha for "Cc1cc(C(=O)NS(=O)(=O)c2c(Cl)cccc2Cl)nn1-c1ccccc1Cl" and stop.
## Output 83%

## Input Specify pest or weed control at 500 g/ha for "Cc1ccccc1S(=O)(=O)NC(=O)c1cn(C)c(-c2nccc3ccccc23)n1" and stop.
## Output 100%

## Input Specify pest or weed control at 500 g/ha for "Cc1ccc(Cl)cc1S(=O)(=O)NC(=O)c1cn(C)c(-c2c(F)cccc2F)n1" and stop.
## Output 100%

## Input Specify pest or weed control at 500 g/ha for "Cc1cccc(C(F)(F)F)c1S(=O)(=O)NC(=O)c1cn(C)c(-c2cccc(Cl)c2Cl)n1" and stop.
## Output 100%

## Input Specify pest or weed control at 500 g/ha for "Cn1cc(C(=O)NS(=O)(=O)c2c(Cl)cccc2Cl)nc1-c1cccc(Cl)c1Cl" and stop.
## Output 83%

## Input Specify pest or weed control at 500 g/ha for "COc1ccc(Br)c(S(=O)(=O)NC(=O)c2cn(C)c(-c3c(F)cccc3F)n2)c1" and stop.
## Output 100%

## Input Specify pest or weed control at 500 g/ha for "Cc1ccccc1S(=O)(=O)NC(=O)c1cn(C)c(-c2ncccc2Cl)n1" and stop.
## Output 100%

## Input Specify pest or weed control at 500 g/ha for "O=C(NS(=O)(=O)c1ccc(Cl)cc1)c1nc(-c2ccccc2Cl)n(-c2ccccc2)c1Cl" and stop.
## Output 100%

## Input Specify pest or weed control at 500 g/ha for "Cc1ccc(F)cc1S(=O)(=O)NC(=O)c1cn(C)c(-c2cccc(Cl)c2Cl)n1" and stop.
## Output 100%

## Input Specify pest or weed control at 500 g/ha for "COc1ccc(OC)c(S(=O)(=O)NC(=O)c2nc(-c3c(F)cccc3F)n(C)c2C)c1" and stop.
## Output 83%

## Input Specify pest or weed control at 500 g/ha for "Cc1ccc(F)cc1S(=O)(=O)NC(=O)c1cn(C)c(-c2ncccc2Cl)n1" and stop.
## Output 100%

## Input Specify pest or weed control at 500 g/ha for "Cc1cccc(F)c1S(=O)(=O)NC(=O)c1cn(C)c(-c2c(F)cccc2F)n1" and stop.
## Output 100%

## Input Specify pest or weed control at 500 g/ha for "Cc1ccc(S(=O)(=O)NC(=O)c2cn(C)c(-c3c(F)cccc3F)n2)c(Cl)c1" and stop.
## Output 100%

## Input Specify pest or weed control at 500 g/ha for "COc1ccc(Br)c(S(=O)(=O)NC(=O)c2cn(C)c(-c3ccccc3Cl)n2)c1" and stop.
## Output 83%

## Input Specify pest or weed control at 500 g/ha for "Cn1c(-c2ccccc2Cl)nc(C(=O)NS(=O)(=O)c2ccccc2Cl)c1Cl" and stop.
## Output 100%

## Input Specify pest or weed control at 500 g/ha for "Cc1cc(C)c(S(=O)(=O)NC(=O)c2cn(C)c(-c3c(F)cccc3F)n2)c(C)c1" and stop.
## Output 100%

## Input Specify pest or weed control at 500 g/ha for "COc1ccc(Cl)c(S(=O)(=O)NC(=O)c2nc(-c3c(F)cccc3F)c(C)n2C)c1" and stop.
## Output 100%

## Input Specify pest or weed control at 500 g/ha for "CCc1ccc(Cl)cc1S(=O)(=O)NC(=O)c1cn(C)c(-c2c(F)cccc2F)n1" and stop.
## Output 100%

## Input Specify pest or weed control at 500 g/ha for "COc1ccc(Cl)c(S(=O)(=O)NC(=O)c2nc(-c3ccccc3Cl)n(C)c2Br)c1" and stop.
## Output 100%

## Input Specify pest or weed control at 500 g/ha for "Cc1cccc(Cl)c1S(=O)(=O)NC(=O)c1cn(C)c(-c2cccc(Cl)c2Cl)n1" and stop.
## Output 100%

## Input Specify pest or weed control at 500 g/ha for "Cc1ccccc1S(=O)(=O)NC(=O)c1cn(C)c(-c2sccc2Cl)n1" and stop.
## Output 83%

## Input Specify pest or weed control at 500 g/ha for "Cc1ccccc1S(=O)(=O)NC(=O)c1cn(C)c(-c2cccc(Cl)c2Cl)n1" and stop.
## Output 100%

## Input Specify pest or weed control at 500 g/ha for "COc1ccc(C)c(S(=O)(=O)NC(=O)c2cn(C)c(-c3c(F)cccc3F)n2)c1" and stop.
## Output 100%

## Input Specify pest or weed control at 500 g/ha for "Cn1cc(C(=O)NS(=O)(=O)c2ccc(Cl)cc2Cl)nc1-c1ccccc1Cl" and stop.
## Output 100%

## Input Specify pest or weed control at 500 g/ha for "Cc1ccccc1S(=O)(=O)NC(=O)c1nc(-c2ccccc2Cl)n(C)c1Cl" and stop.
## Output 100%
